assay: Compound pharmacokinetics (systemic exposure) in rats; assay type: in vivo, rat; details: plasma; rat Male, 10 mg/kg, Day 10, mean (SE), N 3; read-out: AUC0-24
quantityMeasured: AUC(0-t) (ng·h/mL)
Report only the number, with the unit ng·h/mL understood.

Data request: Please indicate AUC(0-t) recorded for CCOc1cc2ncc(C#N)c(Nc3ccc(OCc4ccccn4)c(Cl)c3)c2cc1NC(=O)/C=C/CN(C)C [free base]
Data returned: 6780

====

test: Compound pharmacokinetics (systemic exposure) in rats; format: in vivo, rat; conditions: plasma; rat Male, 10 mg/kg, Day 10, mean (SE), N 3
quantityMeasured: Cmax (ng/mL)
Report only the number, with the unit ng/mL understood.

Data request: Please indicate Cmax recorded for CCOc1cc2ncc(C#N)c(Nc3ccc(OCc4ccccn4)c(Cl)c3)c2cc1NC(=O)/C=C/CN(C)C [free base]
Data returned: 814

====

assay: Compound pharmacokinetics (systemic exposure) in rats; format: in vivo, rat; conditions: plasma, oral; rat Female, 45 mg/kg, Day 28, mean (SE), N 3; read-out: AUC0-24
quantityMeasured: AUC(0-t) (ng·h/mL)
Report only the number, with the unit ng·h/mL understood.

Data request: Please indicate AUC(0-t) recorded for CCOc1cc2ncc(C#N)c(Nc3ccc(OCc4ccccn4)c(Cl)c3)c2cc1NC(=O)/C=C/CN(C)C.O=C(O)/C=C\C(=O)O [Maleate salt]
Data returned: 75600

====

experiment: Compound pharmacokinetics (systemic exposure) in rats; format: in vivo, rat; settings: plasma, oral; rat Male, 100 mg/kg, Day 10, mean (SE), N 3; read-out: AUC0-24
quantityMeasured: AUC(0-t) (ng·h/mL)
Report only the number, with the unit ng·h/mL understood.

Data request: Please indicate AUC(0-t) recorded for CCOc1cc2ncc(C#N)c(Nc3ccc(OCc4ccccn4)c(Cl)c3)c2cc1NC(=O)/C=C/CN(C)C [free base]
Data returned: 58300

====

test: Compound pharmacokinetics (systemic exposure) in rats; format: in vivo, rat; settings: plasma; rat Female, 15 mg/kg, Day 28, mean (SE), N 3; read-out: AUC0-24
quantityMeasured: AUC(0-t) (ng·h/mL)
Report only the number, with the unit ng·h/mL understood.

Data request: Please indicate AUC(0-t) recorded for CCOc1cc2ncc(C#N)c(Nc3ccc(OCc4ccccn4)c(Cl)c3)c2cc1NC(=O)/C=C/CN(C)C.O=C(O)/C=C\C(=O)O [Maleate salt]
Data returned: 34200

Values were extracted from patent US8394959B2.
